Target: T1, His-tagged human B7-H3 (human, UniProt Q5ZPR3-2 29-245, limits assumed)
T1 construct: Bought His-tagged protein coated on the ELISA plate; also called hu B7-H3; CD276
T1 sequence (looked up): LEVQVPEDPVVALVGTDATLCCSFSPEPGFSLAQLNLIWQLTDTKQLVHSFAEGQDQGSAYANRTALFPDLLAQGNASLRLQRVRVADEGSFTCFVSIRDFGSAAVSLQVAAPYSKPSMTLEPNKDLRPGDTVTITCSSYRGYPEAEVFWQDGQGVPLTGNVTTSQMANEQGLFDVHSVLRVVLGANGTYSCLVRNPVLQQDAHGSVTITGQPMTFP
Experiment: ELISA, coated His-tagged antigen, scFv-Fc 1 ug/ml
Reported Endpoint: ELISA OD450 @ 1 ug/ml (OD450)
Report as a plain number; the unit OD450 is understood.

INSERT INTO results (binder, measured) VALUES
  ('40511p1.1.G1 (scFv, V domains shown, Tested as scFv-Fc (Expi293 supernatant)) VH: DVQLVESGGGVVRPGESLRLSCAASGFTFSSYAESWVRQAPGEGLEWVSIISGSGGNTFYADSVKGRFTISRDNSKNTLYLQMNSLRAEDTAVYYCARFAYGFFDYWGLGTLVTVSS VL: EIVLTQSPGTLSVSPGEGATLSCRASQTVGSKLAWYQQKPGQPPSLLIYDASTRATGIPDRFSGSGSGTDFTLTISSLQSEDFAVYYCQQYRNWPPLTFGGGTKVEIK', 2.2),
  ('40511p1.1.D8 (scFv, V domains shown, Tested as scFv-Fc (Expi293 supernatant)) VH: DVQLVESGGGVVRPGESLRLSCAASGFTFSSYAMSWVRQAPGEGLEWVSSISGSGGSTLYADSVKGRFTISRDSSNNSLYLQMNSLRAEDTAVYYCAKARNNFFDYWGLGTLVTVSS VL: EIVLTQSPGTLTLSPGERATLSCRASRSILTSLAWYQQRPGQAPRLLIYGANSRATGIPDRFSGSGSGTEFTLTISSLQSEDFAVYYCQQYYDWLTITFGGGTKVEIK', 2.13),
  ('40511p1.1.H10 (scFv, V domains shown, Tested as scFv-Fc (Expi293 supernatant)) VH: DVQLVESGGGVVRPGESLRLSCAASGFTFSNYAMNWVRQAPGEGLEWVSRINYKGYNITYYADSVKGRFTISRDNSKNTLYLQMNSLRAEDTAVYYCAKSGSNSNNFFDYWGLGTLVTVSS VL: EIVLTQSPGNLSLSPGERATLSCRASQSVGSQLGWYQQKPGQAPRLLIYGASTRATGIPDRFSGSGSGTEFALTISSLQSEDFAVYYCQQYYDWPPLTFGGGTKVEIK', 0.641),
  ('40579p1.G1 (scFv, V domains shown, Tested as scFv-Fc (Expi293 supernatant)) VH: EVQLLESGGGLVQPGGSLRLSCAASGFNFSSYWMSWVRQAPGKGLEWVSGISISYGGNAYYADSVKGRFTVSRDNSKNTLYLQMNSLRAEDTAVYYCGRDRSPYQYRSMDVWGQGTTVTVSS VL: EIVLTQSPGTLSLSPGERATLSCRASQSIRSDLAWYQQKPGQAPRLLIYGASSRATGIPARFSGSGSGTEFTLTISSLQSEDFAVYYCQQYNNWPPLTFGGGTKVEIK', 1.73);

Now for the binder whose ELISA OD450 @ 1 ug/ml we want.
For record 40633p1.1.A6 (scFv, V domains shown, Tested as scFv-Fc (Expi293 supernatant)) VH: EVQLLESGGGLVQPGGSLRLSCAASGFSFSNYDMSWVRQAPGKGLEWVAGIRSGSRTYYADSVKGRFTISRDNSKNTLYLQMNSLRAEDTATYYCGRYFNMDVWGQGTTVTVSS VL: QSVLTQPPSASGTPGQRVTISCSGSTFNIGTNLVHWYQQLPGTAPKLLIYLTDRRPSGVPDRFSGSKSGTSASLAISGLQSEDEANYYCATWDDSLNSFLFGGGTKLTVL the listed ELISA OD450 @ 1 ug/ml is 1.88

Source listed as patent US20260008852A1.
